Assay: soluble on expression in E. coli; label from the status in PepcDB or PDB records
readout_type: soluble on expression in E. coli

>>> experimental_value("MGSDKIHHHHHHMPETLNLNYYYGNEADQYSFYRIPKTLLTDRRYKGVSLEAKVLYGLLLDRMGLSARNGWLDNNGRVFLYFTQEEAMTMLGCGKDKVTKLFRELEGIGLMERKKQGQGHPARIYVKNFILEPEPTAPVQTAENQQSRPLPSAAVKTAEKPQSAPRKTSGQECGISAPNNTDINKTEKSDTDLSILPPTPSAVSSPAGKRAPRRMGLDEMESYRELIMENIDYDILLERYPYEKDLLDGYVELMLEVCCSTRESVRICGQEVPTEVIKSRFLKLNSEHIGYVMDSLKSNTAKIGNIKAYTLAALYNAPVTMGQYYTSLVSHDMAHGLLSG")
"not soluble"
>>> experimental_value("MKLNAIHHVAIIVSDYHLSKDFYVNKLGFEIIRENYRPDKHDYKLDLSCGRIELEIFGKVTSDPNYQAPPKRVSEPEFKSEACGLRHLAFRVTNIESYVDDLKSLGIPVEPIRHDDYTGEKMTFFFDPDGLPLELHE")
"not soluble"
>>> experimental_value("MVFDPDFLNNNSEEHTNQLLNEHFGEHPNQLLKYLQHQSPEVLARVAQSVTPEIKQIISQNVQGLVGMLPAESFNVQITTDRDNLAGLLASAMMTGYFLRQMEQRMQLDHLSNQ")
"not soluble"
>>> experimental_value("MGSDKIHHHHHHMEVTRTDKAVTLTWNKEEVSEGTVVFVSSSPKLEANSEPVFKVTNDVDHYSYDTKDIPIYFFLETPNGYYAIVSERILPLESVFNFRDMGGYASKNGKHVKWGKLYRSSNLVNINENDAALLQKLHIKWICDLRSSSEVKAQPTPAIEGILNKHIPIGTAKNEETKLPVTNDTTIYEPLMGESYRVFVQSVEGFREIFTEVLEDAKAGLPFVFHCTAGKDRTGVLGALLLTLLDVPEKTIFDDYAITNRYQDDILQEMGGIVSLFSSGTEKIDLETFRPMAEARPEYLEIAFDEMKKQYGSVANYLEKGIGITATEKAAFQKEMLE")
"not soluble"
>>> experimental_value("MSLQVKHLLLIAILALTAACSSNKETVDENLSESQLYQQAQDDLNNKSYNSAVTKLKALESRYPFGRYAEQAQLELIYANYKNMEPEAARAAAERFIRLHPQHPNVDYAYYLKGLSSFDQDRGLLARFLPLDMTKRDPGAARDSFNEFAQLTSRFPNSRYAPDAKARMVYLRNLLAAYEVHVGHYYLKRQAYVAAANRGRYVVENFQETPAVGDGLAIMVEAYRRLGLDDLASTSLETLKLNYPDNASLKDGEFVARESEADTRSWLAKATLGLIEGGEPPPHMETQAAKDVIKQYEDAEREIPAELKPENQDHSADDEKPESDDDEDSGRSWWSYMTFGLFDEGGSHHHHHH")
"soluble"
>>> experimental_value("MSLTTFATEWEKQLELYPEEYRKAYRRVKRASEILLREPEPQVGLTPKEVIWTKNKTKLYRYIPKQEKTQRVPILLIYALINKPYIMDLTPGNSLVEYLVDRGFDVYMLDWGTFGLEDSHLKFDDFVFDYIAKAVKKVMRTAKSDEEGHHHHHH")
"not soluble"
>>> experimental_value("HMNAEINPLHAYFKLPNTVSLVAGSSEGETPLNAFDGALLNAGIGNVALIRISSIMPPEAEIVPLPKLPMGALVPTAYGYIISDVPGETISAAISVAIPKDKSLCGLIMEYEGKCSKKEAEKTVREMAKIGFEMRGWELDRIESIAVEHTVEKLGCAFAAAALWYK")
"soluble"

---

Assay: soluble on expression in E. coli; label from the status in PepcDB or PDB records
readout_type: soluble on expression in E. coli

>>> experimental_value("MSLAQDVVVGVSWSNFQEERWKTDEAAIKAELESKGAKYISADAQSSSAKQLSDVESLIAQGATALIILAQDAQAIGPAVQAAADEGIPVVGYDRLIEDSRAFYLTFDNVEVGRMQARAVLEAAPSGRYVMIKGSPTDPNADFLRGGQQEVLQAAIDKGDITIVGEAYTDGWLPANAQRNMEQILTATDNGVDAVVASNDGTAGGVVAALTAQGMEGLPVSGQDGDHAALNRVAKGTQTVSVWKDARDLGRAAARIAVSLAEGTQMNAIGGADDWTSPGGTKMNAMFLEPLPITKDNLSVVVDAGWITQETLCQGVTNGPAPCNEGHHHHHH")
"soluble"
>>> experimental_value("MSLAYGSLLFKRFSITIKYRKLIVEHIEKGDLKLTEEFKNILRDLMVTTFKKADSILIEKCKAEEKHYSSCTGVVLLFIKDILVNAHIGDSRSVACTYSNSINLAQFLTIDHKPDQPLEYRRIVENGGSVEYLQNHNNKPFLRGGDFTRRRARGETPMQLQYSRAFGGKDLKPYGLSCVPDISIISLNQNNRLFIIATDGIWDLLSAQQSCDLSFYSQELGIQPARYLVNAVLEETRNRNTNCDNLTAICIMHIKNEGHHHHHH")
"soluble"

---

Experiment: soluble on expression in E. coli; label from the status in PepcDB or PDB records
readout_type: soluble on expression in E. coli

>>> experimental_value("MSLKIIPGATGYFNKTLNSNQFDNEDAIKGKVNSIYGKSIDYSTMRHRDIIIAKIDLFIQRITHNLWTAREKNVTLIKQINDLKMCVNEYIGDCTDEELNDREFIASVVDRAIFHFAINSICNPEDNKDATLIERCTFDVETKNGLPSTVQLFYEESKDNEPLANIHLQAIGSGFLTFVNACQEHDDNSLKLFASLLISLSYSSVYSDFAGRVNINEYNDNYLKAQFEELSQRDMKKYLGEMKRLADGGEMNFDGYLDKMSHLVNEGTLAPDILSKMRDAAPKLIDFAKSFDPNSKEKIKIYTGTSKLIYDLFGVKSEKEGHHHHHH")
"soluble"
>>> experimental_value("MGSDKIHHHHHHMEYISLNRLGGAAGCPADAEAAARFRAALPEGCKGTFAVARRIAPVIIDFDLVMQEGAASVSLAKGLGLPVVPCIRRQVERARTDFPQRLQLELTNCCNNDCVMCPRHGGHFTRKPKHMDLDLVRRALDEIAQHYNYQLQLFHIGEPLLHPRIFEILDMLEDYPTLGRKWISSKGQELTPDIMRRVLTSKVDYFNYSLLAMTPATYARIVPNGDYATVRGNLERLADLKRDLGVQRPYLRAQMIEMDEALHEIDAFLDTWADRVDLLSVNRLETFSNRIDAKVTSAIKPRESIGPRACKRLERGDLYILSNGEVTVCDTDFNGELSLGNLNETTLAEMARGARYRQIIDSHERGDYSQIELCRHCEDWNL")
"not soluble"
>>> experimental_value("MNHTSGITPLHPSIFHNILGLVALQTTRVGGVSASPLDSLNLGTHVGDDPERVRENERRLCAFLEISCESIVTTGQVHGTEIAVVTGPGKLDGYDALITTVRGLFVGILTADCYPILIYDRRTRACGAAHAGWQGTAGRIAEKTVNAMHNSFGTRPEDCLAWVGTGISGECYEIGGEVAARFSSRYLKPSPSGEGRQLLDLSAANRDQLIEAGIPPSQVQCSELCSYRDADRFFSYRRDNGKTGRMLALIGLRHSD")
"soluble"
>>> experimental_value("MGSDKIHHHHHHMNAVPKDEMTPLERMAAFAAGKPYDRIPCSSFSGETACHFIGTTVSEYRHSAKLMARVETVTYKMFGHDGAGVGPGFLALAEAMGTELKYPEDNIPFVANPVLKNWDDFDKLEPADPHKDGKLPIYLEALAMIKDAIGDEVPIGSSVGGPFTTAALVRGTENFLKDLRRNPEMAHRLLQLVTNTTLNYIDAVMDMGCSVSIGDPTASGSLLSVKQFREFAKPYLSKLADRVIERTGKGPMLHICGDSTPIWSDMADTGAPTLSLDNVIDLAEAKKVVGERVCIMGNVKPIDTIMKGSHQQIEAEVKECLRKAYDSPKGFILAVGCQVPLGTTADNFMCFMNAARKYGRYPLNPDNFI")
"not soluble"
>>> experimental_value("MGSDKIHHHHHHMFIETLNLSHFRNFSEVALSPSPKINIITGDNGSGKTSLLEAIYLLGFGRSFRPGGFRQLIKEGNSGFTVFCRSQDYAIGVRRSTDGEQSLRLNGANVQRMSDVARLVPVQLLTPESVDILLEGPGQRRQFIDWGVFHVEHSFYSDWVAYTQLLKQRNSLLKQRSLPVREDRYWKEQLAYYGERISKSREKYLEELNDYIQELAKSFLSDVTMEVRLKSGWDTSQSLFDALESHTEKDKKYGFTSVGAHKADIKVIADGVEVKHRLSRGQLKTAITALKLAQGKHYQKIKRQPCIYLVDDLTSELDSKNQALLCRELENLDAQVFITAITGKQLSDKFQKSPRMFHVEHGVINE")
"not soluble"
>>> experimental_value("MKPRVEILMSTYNGEKFLAEQLDSILAQTHQYFVLTVRDDGSKDGTPDILSRYAATDERITYCVQENRGVVGSFYWLLKNSSPLSNYVAFSDQDDVWLPNKLERALDVLSRYDETLPLLYCSRVEYVSAGLGHLDDSPMMVRPVCLNNALIQNVATGCTVVMNKAARDLLLEREWPPQVLMHDWWSYIVVSAFGKVVYDDFVSIKYRQHGGNVIGGTVSFVSDYRSRIINFLSRRRKGVFGCYDQAYSFWLGYKDELKGESRGIVSQFIESKRSFLSRLNYLTSSQRVYRHRFIDDVLVRLLILSNKYLEHHHHHH")
"not soluble"
>>> experimental_value("MGSDKIHHHHHHMDIPHQRLVYFQVTIEAGSVRQAAARLDIAPSAVSRQLSLIEEALGAPLLERSRQGVVPTPVGEMLLDYCRKRAALDDRFSETLDAYQRLETGHLSLTVGEGFVGDLLDTPLRTFTERYRGVRLDVNTGSTSDIIEAVVEDEAHIGLMYHERLHPQLRFWHSSRQPLVALMSPSHPLAAVENELPLATLSEHPMALWRTGHGVRQLVDEGFREAGLGQHVTMQTNSLSVLLHAARSELTLTLLPAFAAARELEDGALVARAVDCERFRQAHAHIITRVGRRMPKAGLQLLRHLERWMRAFKSRLVSG")
"not soluble"
>>> experimental_value("MGSDKIHHHHHHMDHRQTFLSRYDTAACKAAHEIISCYSTSFGLATKLLRGRIRTDISNLYAMVRIADEIVDGTAQMAGLEPNAVSQLLDDYEAAVLAAPTQRFHADPILHAWALSARRCKFKTEHVQAFFTSMRNDLHKHNYEAAEFNEYVYGSAEVIGLMCLDAFLVEQHPRPHERTMMEHGARSLGSAFQKINFLRDLEEDTHVLGRNYFPQLTGELTDATKALLVADIRTDLAAAYRCIPLLPFDARVGVQAAADLFTALTDRIQEASAVEVTHTRIRIPKAQKIAIITRAPWRALHG")
"not soluble"
>>> experimental_value("SNAMVKDRQIQKTKVAIYNAFISLLQENDYSKITVQDVIGLANVGRSTFYSHYESKEVLLKELCEDLFHHLFKQGRDVTFEEYLVHILKHFEQNQDSIATLLLSDDPYFLLRFRSELEHDVYPRLREEYITKVDIPEDFLKQFLLSSFIETLKWWLHQRQKMTVEDLLKYYLTMVER")
"soluble"
